Tested on: SF-268 CNS
Test Description: NCI tumour cell line growth inhibition, 48 h
Parameter TGI: see the listing below.

Compound: O=C1CC(c2cccc([N+](=O)[O-])c2)C2(C(=O)NC(=S)NC2=O)C(c2cccc([N+](=O)[O-])c2)C1 (centres undefined)
Target Entity: SF-268 CNS
TGI: 43.4 µM

Give TGI for "COc1ccc2c(CN3CCCC[C@H]3O)cc3cc4c(cc3c2c1)OCO4" 5.74 µM

Give the measured TGI for C/C(=N/NC(N)=S)C(CN1CCOCC1)C(C1=C(O)c2ccccc2OC1)c1ccccc1 (centres undefined) > 100 µM

Note TGI for the compound shown: "N.N.N.N.O=S([O-])[O-].[Co+3].[N-]=[N+]=[N-]" > 100 µM

Specify measured TGI for "C=CCN1C(=O)C[C@H](Cc2ccccc2)NC(=O)C[C@H](Cc2ccccc2)N(CC=C)C(=O)C[C@H](Cc2ccccc2)NC(=O)C[C@@H]1Cc1ccccc1" . > 100 µM

Answer with reported TGI of "COC(=O)c1c(CC(=O)OC(C)C)cc2n(c1=O)Cc1c-2nc2ccccc2c1OC" > 100 µM

Determine from records and report TGI for "CC(C)(C)OC(=O)NCCCCCCCCCCCCn1c2c(c3ccccc3c1=O)C(=O)c1ccccc1-2" > 100 µM

Specify TGI for "COc1cc(N)c(Cl)cc1C(=O)N[C@@H]1CCN(CCCOc2ccc(F)cc2)C[C@@H]1OC" and stop. > 100 µM

Consider the compound NC(=S)c1cccc(C2Nc3ccccc3O2)c1 (centres undefined) and give its recorded TGI. > 100 µM
